These measurements were taken from the supplement of paper PMC10307832.

System: UMC-11
assay.explanation: relative viability (nuclei count vs DMSO), 5 days (fraction); higher = more cells survive
experimental.setup: first compound 0.05 µM
assay.readout: relative viability
// no unit, no text: just the number

## Input Which relative viability is reported with UMC-11 for this entry: COc1cc2nccc(Oc3ccc(NC(=O)Nc4cc(C)on4)c(Cl)c3)c2cc1OC [Tivozanib] + COc1cc2c(Oc3ccc(NC(=O)C4(C(=O)Nc5ccc(F)cc5)CC4)cc3F)ccnc2cc1OCCCN1CCOCC1 [Foretinib] (partner 0.25 µM) ?
## Output 1.1

## Input What measured relative viability is associated with COc1cc2nccc(Oc3ccc(NC(=O)Nc4cc(C)on4)c(Cl)c3)c2cc1OC [Tivozanib] + Cc1cc(Nc2cc(N3CCN(C)CC3)nc(Sc3ccc(NC(=O)C4CC4)cc3)n2)n[nH]1 [Tozasertib] (partner 0.1 µM) on UMC-11?
## Output 0.198

## Input Please provide the recorded relative viability for COc1cc2nccc(Oc3ccc(NC(=O)Nc4cc(C)on4)c(Cl)c3)c2cc1OC [Tivozanib] + N=C(N)NC(=N)NCCc1ccccc1 [Phenformin] (partner 250 µM) , tested on UMC-11.
## Output 0.329

## Input Reported relative viability for UMC-11, given Nc1ccn([C@@H]2O[C@H](CO)[C@@H](O)[C@@H]2O)c(=O)n1 [Cytarabine] + CC(=O)c1c(C)c2cnc(Nc3ccc(N4CCNCC4)cn3)nc2n(C2CCCC2)c1=O [Palbociclib] (partner 0.5 µM) ?
## Output 0.263

---

System: NCI-H1395
assay.explanation: relative viability (nuclei count vs DMSO), 5 days (fraction); higher = more cells survive
experimental.setup: first compound 0.0002 µM
Measured relative viability, listed per entry for reference.

Sample records with relative viability:
# compound, tested.target, value.measured
rows = [
    ("CC(=O)O[C@@]12CO[C@@H]1C[C@H](O)[C@@]1(C)C(=O)[C@H](O)C3=C(C)[C@@H](OC(=O)[C@H](O)[C@@H](NC(=O)OC(C)(C)C)c4ccccc4)C[C@@](O)([C@@H](OC(=O)c4ccccc4)[C@H]21)C3(C)C [Docetaxel] + O=C(c1cc(Cc2n[nH]c(=O)c3ccccc23)ccc1F)N1CCN(C(=O)C2CC2)CC1 [Olaparib] (partner 8 µM)", "NCI-H1395", 0.502),
    ("CC(=O)O[C@@]12CO[C@@H]1C[C@H](O)[C@@]1(C)C(=O)[C@H](O)C3=C(C)[C@@H](OC(=O)[C@H](O)[C@@H](NC(=O)OC(C)(C)C)c4ccccc4)C[C@@](O)([C@@H](OC(=O)c4ccccc4)[C@H]21)C3(C)C [Docetaxel] + Cc1nc(Nc2ncc(C(=O)Nc3c(C)cccc3Cl)s2)cc(N2CCN(CCO)CC2)n1 [Dasatinib] (partner 0.075 µM)", "NCI-H1395", 0.439),
]

Please find the next compound below.
## Input Record request: relative viability value, item CC(=O)O[C@@]12CO[C@@H]1C[C@H](O)[C@@]1(C)C(=O)[C@H](O)C3=C(C)[C@@H](OC(=O)[C@H](O)[C@@H](NC(=O)OC(C)(C)C)c4ccccc4)C[C@@](O)([C@@H](OC(=O)c4ccccc4)[C@H]21)C3(C)C [Docetaxel] + C[C@]1(O)C[C@@H](c2nc(-c3ccc4ccc(-c5ccccc5)nc4c3)c3c(N)nccn32)C1 [Linsitinib] (partner 1 µM)
## Output 1.05
